Each entry below carries its recorded Ki.
molecular target: UniProtKB Q72874; assay: Inhibition of recombinant HIV-1 protease measured by fluorometric assay
Reply numerically in nM, unit not repeated.

>>> print(df.to_string())
                  compound_structure_string     system_tested  parameter  readout_units  reading
0  C/C(=N\O)c1cccc(CN2[C@H](COc3ccccc3)[C@H](O)[C@@H](O)[C@@H](COc3ccccc3)N(Cc3cccc(/C(C)=N/O)c3)S2(=O)=O)c1  UniProtKB Q72874         Ki             nM      3.4
1  CNC(=O)CN1[C@@H](COc2ccccc2)[C@@H](O)[C@H](O)[C@H](COc2ccccc2)N(Cc2ccccc2)S1(=O)=O  UniProtKB Q72874         Ki             nM     1400
2  O=C(CN1[C@@H](COc2ccccc2)[C@@H](O)[C@H](O)[C@H](COc2ccccc2)N(Cc2cccc(I)c2)S1(=O)=O)Nc1nccs1  UniProtKB Q72874         Ki             nM      510
3  O=C(CN1[C@@H](COc2ccccc2)[C@@H](O)[C@H](O)[C@H](COc2ccccc2)N(Cc2ccccc2)S1(=O)=O)Nc1nccs1  UniProtKB Q72874         Ki             nM      350

Consider the record given below.
Provide UniProtKB Q72874 Ki reading for `CN1[C@@H](COc2ccccc2)[C@@H](O)[C@H](O)[C@H](COc2ccccc2)N(Cc2ccccc2)S1(=O)=O` . 510

----------
target: Human immunodeficiency virus type 1 protease (Human immunodeficiency virus 1, UniProt Q72874); assay: Inhibition of HIV-1 protease by fluorometric assay
PARAMETER: pKi
The quantity pKi is defined as the negative base-10 logarithm of the molar concentration.

>>> print(df.to_string())
                  compound_structure_string  parameter  reading
0  O=S1(=O)N(Cc2ccccc2)[C@@H](COc2ccccc2)[C@@H](O)[C@H](O)[C@H](COc2ccccc2)N1Cc1ccc(-c2cccs2)cc1        pKi     7.20
1  O=S1(=O)N(Cc2ccc(-c3cccs3)cc2)[C@@H](COc2ccccc2)[C@@H](O)[C@H](O)[C@H](COc2ccccc2)N1Cc1cccc(-c2cccs2)c1        pKi     5.22
2  O=S1(=O)N(Cc2cccc(I)c2)[C@@H](COc2ccccc2)[C@@H](O)[C@H](O)[C@H](COc2ccccc2)N1Cc1cccc(I)c1        pKi     7.03

Entry `C/C(=N\O)c1cccc(CN2[C@H](COc3ccccc3)[C@H](O)[C@@H](O)[C@@H](COc3ccccc3)N(Cc3cccc(/C(C)=N/O)c3)S2(=O)=O)c1` needs its pKi filled in; supply it. 8.47

Determine from records and report pKi for `O=S1(=O)N(Cc2ccc(-c3cccs3)cc2)[C@@H](COc2ccccc2)[C@@H](O)[C@H](O)[C@H](COc2ccccc2)N1Cc1ccc(-c2cccs2)cc1` 6.04

Quickly give me recorded pKi for `O=S1(=O)N(Cc2ccc(CO)cc2)[C@@H](COc2ccccc2)[C@@H](O)[C@H](O)[C@H](COc2ccccc2)N1Cc1ccc(CO)cc1` 8.51

----------
target: UniProtKB Q72874; assay: Inhibition of recombinant HIV-1 protease measured by fluorometric assay
PARAMETER: Ki (nM)
Form entry: value (nM) — number only.

>>> print(df.to_string())
                  compound_structure_string     system_tested  parameter  readout_units  reading
0  O=S1(=O)N(Cc2ccc(-c3cccs3)cc2)[C@@H](COc2ccccc2)[C@@H](O)[C@H](O)[C@H](COc2ccccc2)N1Cc1cccc(-c2cccs2)c1  UniProtKB Q72874         Ki             nM     6000

We next turn to a different compound, shown below.
State, in one line, measured Ki of `O=C(CN1[C@@H](COc2ccccc2)[C@@H](O)[C@H](O)[C@H](COc2ccccc2)N(Cc2ccc(-c3cccs3)cc2)S1(=O)=O)Nc1nccs1` 1800
